B1: MTMR15 (parent)
chain: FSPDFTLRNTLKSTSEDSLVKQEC

# Variants of: B1
# Measurement notes: protein stability index of a GFP-peptide fusion (GPS, HEK-293T) (PSI 1-6); higher = more stable;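 note: lentivirally expressed fusions sorted by FACS into six bins by GFP to DsRed ratio, PSI derived from sequencing read proportions per bin multiplied by bin number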
# Details: c terminus: a fixed tail appended
Documented protein stability index across a set of variants
Lab note: record the figure alone, no unit after it.

Example entries and their recorded answers appear below.
* N9V | 2.18
* D17N | 1.8
* K21T | 2.1

Continue with the next variant.
IN: # lookup: protein stability index of "S15M"
OUT: 1.99
